These data points were gathered from ChEMBL document CHEMBL1122206.

- test_target: Hexokinase-3 (Rattus norvegicus)
- method_notes: Substrate activity for rat hexokinase III as 1:1 Mg complex at 5.0 mM

# input_smiles, Relative velocity
records = [
    ("Nc1ncnc2c1ncn2[C@@H]1O[C@H](COP(=O)(O)OP(=O)(O)OP(=O)(O)O)[C@@H](O)[C@H]1O", 1),
    ("O=C(CI)NCC(=O)NCCCCCCNc1ncnc2c1ncn2[C@@H]1O[C@H](COP(=O)(O)OP(=O)(O)OP(=O)(O)O)[C@@H](O)[C@H]1O", 2.06),
    ("O=C(CI)NCCCCCC(=O)NCCCNc1ncnc2c1ncn2[C@@H]1O[C@H](COP(=O)(O)OP(=O)(O)OP(=O)(O)O)[C@@H](O)[C@H]1O", 1.04),
    ("CN(CCCCCCN(C)c1ncnc2c1ncn2[C@@H]1O[C@H](COP(=O)(O)OP(=O)(O)OP(=O)(O)O)[C@@H](O)[C@H]1O)C(=O)CCCCCCNC(=O)CI", 2.06),
    ("O=C(CI)NCCNc1ncnc2c1ncn2[C@@H]1O[C@H](COP(=O)(O)OP(=O)(O)OP(=O)(O)O)[C@@H](O)[C@H]1O", 0.5),
    ("O=C(CI)NCCCCCC(=O)NCCCCCCNc1ncnc2c1ncn2[C@@H]1O[C@H](COP(=O)(O)OP(=O)(O)OP(=O)(O)O)[C@@H](O)[C@H]1O", 1.37),
    ("O=C(CI)NCCCC(=O)NCCCCCCNc1ncnc2c1ncn2[C@@H]1O[C@H](COP(=O)(O)OP(=O)(O)OP(=O)(O)O)[C@@H](O)[C@H]1O", 2.02),
    ("CN(CCCCN(C)c1ncnc2c1ncn2[C@@H]1O[C@H](COP(=O)(O)OP(=O)(O)OP(=O)(O)O)[C@@H](O)[C@H]1O)C(=O)CCCNC(=O)CI", 0.93),
    ("O=C(CI)NCCCCCCCCNc1ncnc2c1ncn2[C@@H]1O[C@H](COP(=O)(O)OP(=O)(O)OP(=O)(O)O)[C@@H](O)[C@H]1O", 2.81),
]

###

- test_target: Hexokinase-1 (Rattus norvegicus) (UniProt P05708)
- Sequence (P05708 whole entry): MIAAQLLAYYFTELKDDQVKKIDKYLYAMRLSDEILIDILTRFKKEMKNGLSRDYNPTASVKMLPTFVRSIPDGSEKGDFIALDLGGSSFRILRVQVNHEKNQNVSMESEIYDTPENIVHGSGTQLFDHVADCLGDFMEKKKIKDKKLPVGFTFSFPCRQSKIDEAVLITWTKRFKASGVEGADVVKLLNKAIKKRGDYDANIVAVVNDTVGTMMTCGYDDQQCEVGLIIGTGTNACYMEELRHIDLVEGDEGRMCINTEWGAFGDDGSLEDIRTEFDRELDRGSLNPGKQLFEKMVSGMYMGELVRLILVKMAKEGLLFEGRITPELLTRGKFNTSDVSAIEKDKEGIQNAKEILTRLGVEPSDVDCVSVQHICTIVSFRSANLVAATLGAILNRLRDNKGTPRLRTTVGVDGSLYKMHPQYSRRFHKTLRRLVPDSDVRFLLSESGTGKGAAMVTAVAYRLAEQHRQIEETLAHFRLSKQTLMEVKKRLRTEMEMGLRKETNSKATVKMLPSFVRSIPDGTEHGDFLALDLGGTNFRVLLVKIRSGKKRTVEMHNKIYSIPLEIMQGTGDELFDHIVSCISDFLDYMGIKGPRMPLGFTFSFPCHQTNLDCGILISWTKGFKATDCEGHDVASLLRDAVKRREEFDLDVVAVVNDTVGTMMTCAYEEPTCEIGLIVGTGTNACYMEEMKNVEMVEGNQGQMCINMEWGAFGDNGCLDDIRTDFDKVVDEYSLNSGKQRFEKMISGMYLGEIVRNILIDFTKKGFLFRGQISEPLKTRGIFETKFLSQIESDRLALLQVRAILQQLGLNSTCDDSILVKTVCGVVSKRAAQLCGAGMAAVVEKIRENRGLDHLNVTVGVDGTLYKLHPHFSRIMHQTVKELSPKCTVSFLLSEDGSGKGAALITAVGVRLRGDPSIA
- method_notes: Substrate activity for rat hexokinase I as 1:1 Mg complex at 5.0 mM
Parameter: Relative velocity. Scope: all listed entries.
quantity_measured: Relative velocity

# input_smiles, test_target, recorded_measurement
rows = [
    ("CN(CCCCN(C)c1ncnc2c1ncn2[C@@H]1O[C@H](COP(=O)(O)OP(=O)(O)OP(=O)(O)O)[C@@H](O)[C@H]1O)C(=O)CCCNC(=O)CI", "Hexokinase-1 (Rattus norvegicus) (UniProt P05708)", 0.88),
    ("O=C(CI)NCCNc1ncnc2c1ncn2[C@@H]1O[C@H](COP(=O)(O)OP(=O)(O)OP(=O)(O)O)[C@@H](O)[C@H]1O", "Hexokinase-1 (Rattus norvegicus) (UniProt P05708)", 0.58),
    ("CN(CCCN(C)C(=O)CCCNc1ncnc2c1ncn2[C@@H]1O[C@H](COP(=O)(O)OP(=O)(O)OP(=O)(O)O)[C@@H](O)[C@H]1O)C(=O)CCCNC(=O)CI", "Hexokinase-1 (Rattus norvegicus) (UniProt P05708)", 0.63),
]

###

- test_target: Thymidine kinase (Escherichia coli)
- method_notes: Compound was tested for the initial inhibition of thymidine kinase by 1.4 mM compound in the presence of 5.7 mM ATP in Escherichia coli
true means recorded inhibition is 8% or above; false means it is below 8%.

# input_smiles, assigned_class
measured = [
    ("O=C(CI)NCCCCCCCCNc1ncnc2c1ncn2[C@@H]1O[C@H](COP(=O)(O)OP(=O)(O)OP(=O)(O)O)[C@@H](O)[C@H]1O", "true"),
    ("CN(CCCCCCN(C)c1ncnc2c1ncn2[C@@H]1O[C@H](COP(=O)(O)OP(=O)(O)OP(=O)(O)O)[C@@H](O)[C@H]1O)C(=O)CCCCCNC(=O)CI", "false"),
    ("CN(CCCCN(C)c1ncnc2c1ncn2[C@@H]1O[C@H](COP(=O)(O)OP(=O)(O)OP(=O)(O)O)[C@@H](O)[C@H]1O)C(=O)CCCNC(=O)CI", "false"),
    ("O=C(CI)NCCC(=O)NCCCCCCNc1ncnc2c1ncn2[C@@H]1O[C@H](COP(=O)(O)OP(=O)(O)OP(=O)(O)O)[C@@H](O)[C@H]1O", "false"),
    ("O=C(CI)NCCNc1ncnc2c1ncn2[C@@H]1O[C@H](COP(=O)(O)OP(=O)(O)OP(=O)(O)O)[C@@H](O)[C@H]1O", "false"),
    ("CN(CCCCCCN(C)c1ncnc2c1ncn2[C@@H]1O[C@H](COP(=O)(O)OP(=O)(O)OP(=O)(O)O)[C@@H](O)[C@H]1O)C(=O)CCCCCCNC(=O)CI", "true"),
    ("CN(CCCCN(C)c1ncnc2c1ncn2[C@@H]1O[C@H](COP(=O)(O)OP(=O)(O)OP(=O)(O)O)[C@@H](O)[C@H]1O)C(=O)CCCCCNC(=O)CI", "true"),
    ("O=C(CI)NCCCCCCC(=O)NCCCCCCNc1ncnc2c1ncn2[C@@H]1O[C@H](COP(=O)(O)OP(=O)(O)OP(=O)(O)O)[C@@H](O)[C@H]1O", "true"),
]
